- assayedSystem: CypA (Homo sapiens (Human), UniProt P62937)
- Sequence (P62937 whole entry): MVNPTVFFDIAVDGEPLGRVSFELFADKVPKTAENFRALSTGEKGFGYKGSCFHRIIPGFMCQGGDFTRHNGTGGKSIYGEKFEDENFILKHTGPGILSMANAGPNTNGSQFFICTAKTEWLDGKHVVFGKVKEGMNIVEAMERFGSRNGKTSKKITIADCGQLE
- assayComment: X-ray co-crystal structure with CypA; further: key: Y: observed in cocrystal; N: not observed in cocrystal
- Format: binding
- experimentalConditions: apo CypA crystals soaked with 5 mM ligand
Where a name gives a salt, the structure may show the parent alone.
assayEndpoint: CypA X-ray co-crystal

Would you please look over these solved cases?
INSERT INTO measurements (molecule, assayendpoint, reported) VALUES
  ('CCCN(Cc1ccc(N)cc1)C(=O)NCC(=O)OCC', 'CypA X-ray co-crystal', 'Y'),
  ('CCN(Cc1ccc(N)cc1)C(=O)NCC(=O)N1CCCC1c1ccccc1 (stereo not drawn)', 'CypA X-ray co-crystal', 'Y'),
  ('CCOC(=O)Cn1cc(CN(Cc2ccc(N)cc2)C(=O)NCC(=O)N2CCCC2c2ccccc2Br)nn1.Cl (stereo not drawn)', 'CypA X-ray co-crystal', 'N'),
  ('CCOC(=O)CNC(=O)N(Cc1ccc(N)cc1)CC1CC1.Cl', 'CypA X-ray co-crystal', 'Y');

IN: I would be grateful if you could share the reported CypA X-ray co-crystal for C#CCN(Cc1ccc(N)cc1)C(=O)NCC(=O)N1CCCC1c1ccccc1Br.Cl (stereo not drawn) .
OUT: Y

IN: Given the molecule "CCOC(=O)CNC(=O)N(Cc1ccc(N)cc1)Cc1nnn(C)n1.Cl" , what is its reported CypA X-ray co-crystal?
OUT: Y

IN: Which CypA X-ray co-crystal value is on record for Cl.Nc1ccc(CN(CC2CC2)C(=O)NCC(=O)N2CCCC2c2ccccc2Br)cc1 (stereo not drawn) ?
OUT: Y

IN: Which CypA X-ray co-crystal value belongs to CCOC(=O)[C@H](CCSC)NC(=O)N(CC)Cc1ccc(N)cc1 [Compound 15, hydrochloride] ?
OUT: Y

IN: Can you look up the measured CypA X-ray co-crystal of CCOC(=O)CCn1cc(CN(Cc2ccc(N)cc2)C(=O)NCC(=O)N2CCCC2c2ccccc2Br)nn1.Cl (stereo not drawn) for me?
OUT: N

---

Consider the following molecules; for each one, report its Kd.
Numeric only. Scale: nM

IN: Recall the recorded Kd for CCOC(=O)Cn1cc(CN(Cc2ccc(N)cc2)C(=O)NCC(=O)N2CCCC2c2ccccc2Br)nn1.Cl (centres unmarked) [Compound 5, hydrochloride] with CypB (Homo sapiens (Human), UniProt P23284) and state it.
Sequence (P23284 34-216): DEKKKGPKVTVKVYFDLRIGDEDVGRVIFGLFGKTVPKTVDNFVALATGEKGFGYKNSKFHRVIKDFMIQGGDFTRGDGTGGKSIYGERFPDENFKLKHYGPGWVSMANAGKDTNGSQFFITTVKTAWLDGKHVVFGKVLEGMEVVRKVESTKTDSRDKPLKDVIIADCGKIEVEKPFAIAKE
OUT: 1900

IN: Reported Kd for CypB (Homo sapiens (Human), UniProt P23284), given C#CCN(Cc1ccc(N)cc1)C(=O)NCC(=O)N1CCCC1c1ccccc1Br.Cl (centres unmarked) [Compound 1, hydrochloride] ?
OUT: 1400

---

- assayedSystem: UniProt P30405
- Sequence (P30405 30-207): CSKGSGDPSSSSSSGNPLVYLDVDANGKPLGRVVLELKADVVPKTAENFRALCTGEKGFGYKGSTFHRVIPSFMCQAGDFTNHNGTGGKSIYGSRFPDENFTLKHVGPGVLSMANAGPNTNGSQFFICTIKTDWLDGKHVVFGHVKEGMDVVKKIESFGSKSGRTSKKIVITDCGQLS
assayEndpoint: Kd (nM)
Report only the number, with the unit nM understood.

IN: Entry C#CCN(Cc1ccc(N)cc1)C(=O)NCC(=O)N1CCCC1c1ccccc1Br.Cl (centres unmarked) [Compound 1, hydrochloride] has what Kd?
OUT: 200

IN: # get_value(readout='Kd', item= CCOC(=O)Cn1cc(CN(Cc2ccc(N)cc2)C(=O)NCC(=O)N2CCCC2c2ccccc2Br)nn1.Cl (centres unmarked) [Compound 5, hydrochloride] )
OUT: 1000

---

- assayedSystem: CypA (Homo sapiens (Human), UniProt P62937)
- assayComment: Isothermal titration calorimetry (ITC) binding to CypA
- experimentalConditions: 25° C.
Where a name gives a salt, the structure may show the parent alone.
Could you please report measured Kd for the items listed next?
Supply the numeric figure in µM, leaving out any unit text.

IN: Requested field: Kd. Item: Cl.Cn1cc(CN(Cc2ccc(N)cc2)C(=O)NCC(=O)N2CCCC2c2ccccc2Cl)nn1 (centres unmarked) [Compound 8, hydrochloride]
OUT: 1.1

IN: Which Kd value is on record for C#CCN(Cc1ccc(N)cc1)C(=O)NCC(=O)N1CCCC1c1ccccc1Br.Cl (centres unmarked) [Compound 1, hydrochloride] ?
OUT: 2

IN: Entry CCOC(=O)CNC(=O)N(CC)Cc1ccc2c(c1)[C@H]1CC(N2)[C@H](O)CO1 (stereo in doubt) [Compound 23, hydrochloride] : reported Kd = ?
OUT: 700

IN: So what's the measured Kd for this one? "CCCN(Cc1ccc(N)cc1)C(=O)NCC(=O)OCC"
OUT: 266

IN: Request the reported Kd associated with CCOC(=O)CNC(=O)N(CC#N)Cc1ccc(N)cc1.Cl [Compound 13, hydrochloride]
OUT: 990
